System: CCRF-CEM leukemia
Test: NCI tumour cell line growth inhibition, 48 h
Parameter TGI: see the listing below.

Study these solved cases before continuing.
Compound	Tgt	TGI
C=C(CNCCc1ccc(O)cc1)[C@@H]1CC[C@]2(CO)CC[C@]3(C)[C@H](CC[C@@H]4[C@@]5(C)CCC(NCCO)C(C)(C)[C@@H]5CC[C@]43C)[C@@H]12 (some centres undefined)	CCRF-CEM leukemia	1.92 µM
CCCN=C1S/C(=C/c2ccc(OC)c(OC)c2)C(=O)N1c1ccccc1	CCRF-CEM leukemia	> 100 µM
CCOC(=O)C(NC(=O)Nc1ccccc1F)(OC)C(F)(F)F (centres undefined)	CCRF-CEM leukemia	> 100 µM

Exam item: Query for CCRF-CEM leukemia: what TGI does the record show for CC[C@]12C=CCN3CC[C@]4(C(=C(C(=O)OC)C1)Nc1ccccc14)[C@@H]32 ?
Marked response: > 100 µM

Exam item: Query for CCRF-CEM leukemia: what TGI does the record show for Cc1ccc2c(c1)C(=O)c1ccc(C)nc1C2=O ?
Marked response: > 100 µM

Exam item: Query for CCRF-CEM leukemia: what TGI does the record show for COc1cc(-c2c(C(C)=O)c(-c3ccccc3)n(C3OC(COC(C)=O)C(OC(C)=O)C(OC(C)=O)C3OC(C)=O)c(=S)c2C#N)ccc1O (centres undefined) ?
Marked response: > 100 µM

Exam item: Query for CCRF-CEM leukemia: what TGI does the record show for CCN1N=CSC12C(=O)N(c1ccccc1)C(=O)N2c1ccccc1 (centres undefined) ?
Marked response: > 100 µM

Exam item: Query for CCRF-CEM leukemia: what TGI does the record show for COc1ccc(OC)c(CC(=O)c2ccc(O)c(C(=O)NCCc3ccc(F)cc3)c2)c1 ?
Marked response: 6.65 µM

Exam item: Query for CCRF-CEM leukemia: what TGI does the record show for CCOC(=O)c1c(C)n(-c2ccc(C)cc2)c2c1cc(O)c1[nH]c3c(c12)CCCC3 ?
Marked response: 7.64 µM

* * *

Test system: ACHN renal
Experiment: NCI tumour cell line growth inhibition, 48 h
Readout type: GI50

Chemical structure	Tgt	GI50
Nc1nccc(C#Cc2cncnc2Nc2ccc(OCc3cccc(F)c3)c(Cl)c2)n1	ACHN renal	4.2 µM
O=C(Nc1ccc(-n2cc(-c3ccncc3)c(-c3ccc(O)c(Cl)c3)n2)cc1)c1ccc(Cl)c(Cl)c1	ACHN renal	1.34 µM
CC[C@]12C=CCN3CC[C@]4(C(=C(C(=O)OC)C1)Nc1ccccc14)[C@@H]32	ACHN renal	2.07 µM

Exam item: Which GI50 value belongs to CCCCCCCCCCCCCCCc1ccc(C(=O)C[n+]2ccccc2)cc1 ?
Marked response: 1.01 µM

* * *

Tested on: SF-268 CNS
Assay: NCI tumour cell line growth inhibition, 48 h
Readout type: TGI

Exam item: Which TGI value belongs to COC(=O)C(NC(=O)C12CCC(C)(C(=O)O1)C2(C)C)c1cc(C(C)(C)C)c(O)c(C(C)(C)C)c1 (stereo unspecified) ?
Marked response: > 100 µM

Exam item: Which TGI value belongs to O=C(O)c1ccccc1/C=C1\Cc2ccc3c(c2C1=O)CCCC3 ?
Marked response: > 100 µM

Exam item: Which TGI value belongs to CC1=C(C(=O)Nc2cc(F)c(F)cc2F)C(c2cccc([N+](=O)[O-])c2)C(C(=O)Nc2ccccc2C(F)(F)F)=C(C)N1 (stereo unspecified) ?
Marked response: 54.6 µM

Exam item: Which TGI value belongs to CN(C)c1ccc(C=Nc2ccc(-c3nc4ccccc4o3)cc2)cc1 ?
Marked response: > 100 µM

Exam item: Which TGI value belongs to O=c1[nH]cnc2c1nnn2C1C=C(CO)C(O)C1O (stereo unspecified) ?
Marked response: > 100 µM

Exam item: Which TGI value belongs to CCOC(=O)/C(=C/c1c(-c2ccccc2)[nH]c2ccccc12)C(=O)c1ccc(Cl)cc1 ?
Marked response: > 100 µM
